# Lookup of reported melting point keyed by entry
Where a name gives a salt, the structure may show the parent alone.
PROPERTY LABEL: melting point

compound=Nc1nc(N)c2sc(=O)n([C@@H]3O[C@H](CO)[C@@H](O)[C@H]3O)c2n1 property_label="melting point" result="> 155 °C (dec.)"
compound="CC(C)[C@H](N)C(=O)OC[C@H]1O[C@@H](n2c(=O)sc3c(O)nc(N)nc32)[C@H](O)[C@@H]1O (as salt: hydrochloride) [Compound 3, Dihydrochloride]" property_label="melting point" result="166 to 168 °C (dec.)"
compound=CN(C)c1nc(N)nc2c1sc(=O)n2[C@@H]1O[C@H](CO)[C@@H](O)[C@H]1O property_label="melting point" result="> 112 °C"

---

Experiment: Toxicology studies in beagle dogs (GI tolerance)
Conditions: beagle, dog, in vivo, iv
PROPERTY LABEL: NOAEL (mg/kg)

molecule="Nc1nc2c(sc(=O)n2[C@@H]2O[C@H](CO)[C@@H](O)[C@H]2O)c(=O)[nH]1 [Compound 1, reference compound]" property_label=NOAEL quantitative_result=12.5

Ref: patent US20080070852A1
